conditions: 303.15 K; 101.33 kPa; Liquid; Concentric cylinders viscometry
ENDPOINT_NAME: viscosity (mPa·s)
Number only, in mPa·s; omit the unit.

Would you please look over these solved cases?
CCCCCCCCCCCC(=O)OCC [ethyl dodecanoate] :: 2.707
CCCCCCCCCCCCCC(=O)OC [methyl tetradecanoate] :: 3.543
CCCCCCCCCC(=O)OC [methyl decanoate] :: 1.76
CCCCCCCC/C=C\CCCCCCCC(=O)OC [methyl cis-9-octadecenoate] :: 4.961
CCCCCCCCCCCC(=O)OC [methyl dodecanoate] :: 2.536

// Input: CCCCCCCC(=O)OC [methyl octanoate] . Output its viscosity only.
1.212

// Input: CCCCCCCC/C=C\CCCCCCCC(=O)OCC [ethyl (Z)-9-octadeceneoate] . Output its viscosity only.
5.092

// Input: CCCCC/C=C\C/C=C\CCCCCCCC(=O)OC [methyl (Z,Z)-9,12-octadecadienate] . Output its viscosity only.
3.961

// Input: CCCCCCCCCC(=O)OCC [ethyl decanoate] . Output its viscosity only.
1.911

// Input: CCCCCCCCCCCCCCCC(=O)OCC [ethyl hexadecanoate] . Output its viscosity only.
5.011

// Input: CCCCCCCCCCCCCC(=O)OCC [ethyl tetradecanoate] . Output its viscosity only.
3.721

###

settings: 338.15 K; 101.33 kPa; Liquid; Concentric cylinders viscometry
Known viscosity of a selection of compounds
Number only, in mPa·s; omit the unit.

CCCCCCCCCC(=O)OC [methyl decanoate] :: 1.013
CCCCCCCCCCCCCCCCCC(=O)OCC [ethyl octadecanoate] :: 3.007

Would you kindly look at the next entry?
// Input: CCCCC/C=C\C/C=C\CCCCCCCC(=O)OC [methyl (Z,Z)-9,12-octadecadienate] . Output its viscosity only.
2.093

###

Known mass density of a selection of compounds
settings: 283.15 K; 101.33 kPa; Liquid; Vibrating tube method
Number only, in kg/m3; omit the unit.

Would you please look over these solved cases?
CCCCC/C=C\C/C=C\CCCCCCCC(=O)OC [methyl (Z,Z)-9,12-octadecadienate] :: 893.5
CCCCCCCCCCCC(=O)OC [methyl dodecanoate] :: 877.7

Would you kindly look at the next entry?
// Input: CCCCCCCCCC(=O)OC [methyl decanoate] . Output its mass density only.
880.6

###

conditions: 308.15 K; 101.33 kPa; Liquid; Vibrating tube method
ENDPOINT_NAME: mass density (kg/m3)
Number only, in kg/m3; omit the unit.

Would you please look over these solved cases?
CCCCCCCC/C=C\CCCCCCCC(=O)OC [methyl cis-9-octadecenoate] :: 863.1
CCCCCCCC(=O)OC [methyl octanoate] :: 864
CCCCC/C=C\C/C=C\CCCCCCCC(=O)OC [methyl (Z,Z)-9,12-octadecadienate] :: 875.2
CCCCCCCCCCCC(=O)OCC [ethyl dodecanoate] :: 850.7

Would you kindly look at the next entry?
// Input: CCCCCCCCCCCCCC(=O)OC [methyl tetradecanoate] . Output its mass density only.
856

###

conditions: 318.15 K; 101.33 kPa; Liquid; Vibrating tube method
Known mass density of a selection of molecules
Number only, in kg/m3; omit the unit.

Would you please look over these solved cases?
CCCCCCCCCC(=O)OC [methyl decanoate] :: 851.9
CCCCC/C=C\C/C=C\CCCCCCCC(=O)OC [methyl (Z,Z)-9,12-octadecadienate] :: 867.9
CCCCCCCCCCCCCCCCCC(=O)OCC [ethyl octadecanoate] :: 841.1
CCCCCCCCCCCCCCCCCC(=O)OC [methyl octadecanoate] :: 846.1
CCCCCCCCCCCC(=O)OCC [ethyl dodecanoate] :: 842.9
CCCCCCCCCC(=O)OCC [ethyl decanoate] :: 843.9

// Input: CCCCCCCC(=O)OC [methyl octanoate] . Output its mass density only.
855.2

###

settings: 318.15 K; 101.33 kPa; Liquid; Concentric cylinders viscometry
ENDPOINT_NAME: viscosity (mPa·s)
Number only, in mPa·s; omit the unit.

Would you please look over these solved cases?
CCCCC/C=C\C/C=C\CCCCCCCC(=O)OC [methyl (Z,Z)-9,12-octadecadienate] :: 2.936
CCCCCCCCCCCCCCCC(=O)OC [methyl hexadecanoate] :: 3.368
CCCCCCCCCCCCCCCC(=O)OCC [ethyl hexadecanoate] :: 3.547
CCCCCCCCCC(=O)OCC [ethyl decanoate] :: 1.473
CCCCCCCCCCCC(=O)OCC [ethyl dodecanoate] :: 2.024

// Input: CCCCCCCC(=O)OC [methyl octanoate] . Output its viscosity only.
0.9733

###

Known viscosity of a selection of molecules
settings: 328.15 K; 101.33 kPa; Liquid; Concentric cylinders viscometry
Number only, in mPa·s; omit the unit.

CCCCCCCCCCCCCC(=O)OC [methyl tetradecanoate] :: 2.129
CCCCCCCC(=O)OC [methyl octanoate] :: 0.8518
CCCCCCCC/C=C\CCCCCCCC(=O)OCC [ethyl (Z)-9-octadeceneoate] :: 2.99
CCCCCCCCCC(=O)OC [methyl decanoate] :: 1.167
CCCCCCCCCCCCCCCCCC(=O)OC [methyl octadecanoate] :: 3.568

// Input: CCCCCCCCCCCCCCCCCC(=O)OCC [ethyl octadecanoate] . Output its viscosity only.
3.654

###

details: 313.15 K; 101.33 kPa; Liquid; Concentric cylinders viscometry
Known viscosity of a selection of compounds
Number only, in mPa·s; omit the unit.

Would you please look over these solved cases?
CCCCCCCC/C=C\CCCCCCCC(=O)OC [methyl cis-9-octadecenoate] :: 3.93
CCCCCCCCCCCCCCCC(=O)OCC [ethyl hexadecanoate] :: 3.956

Would you kindly look at the next entry?
// Input: CCCCCCCC/C=C\CCCCCCCC(=O)OCC [ethyl (Z)-9-octadeceneoate] . Output its viscosity only.
4.048

###

conditions: 293.15 K; 101.33 kPa; Liquid; Vibrating tube method
± gives the expanded uncertainty stated by the source.
Known mass density of a selection of compounds
Answer format: value, then unit.

Would you please look over these solved cases?
CCCCC/C=C\C/C=C\CCCCCCCC(=O)OC [methyl (Z,Z)-9,12-octadecadienate] :: 886.2 ± 1 kg/m3
CCCCCCCCCCCC(=O)OCC [ethyl dodecanoate] :: 862.4 ± 1 kg/m3
CCCCCCCC/C=C\CCCCCCCC(=O)OC [methyl cis-9-octadecenoate] :: 874.1 ± 1 kg/m3

// Input: CCCCCCCCCC(=O)OC [methyl decanoate] . Output its mass density only.
872.3 ± 1 kg/m3

// Input: CCCCCCCC/C=C\CCCCCCCC(=O)OCC [ethyl (Z)-9-octadeceneoate] . Output its mass density only.
869.5 ± 1.2 kg/m3

// Input: CCCCCCCCCCCCCC(=O)OCC [ethyl tetradecanoate] . Output its mass density only.
861 ± 1 kg/m3
